- Test system: A498
- assay notes: NCI tumour cell line growth inhibition, 48 h
Activity calls are given as the source filed them. Rule as the data show it: active = GI50 up to about 1.1 µM and inactive = higher.
Outcome field: choose from active, inactive

Known results for compounds:
smiles string	test target	label class
ClCc1nn(-c2ccccc2)c(CCl)c1CCl	A498	inactive
Nc1nc(O)c(Br)c(-c2cccc([N+](=O)[O-])c2)n1	A498	inactive
Cc1cc(N(CCC#N)CCC#N)ccc1/N=N/c1ccc(S(N)(=O)=O)cc1	A498	inactive
CNC(=O)Nc1nc2cc([N+](=O)[O-])ccc2[nH]1	A498	inactive
CN(C)CCCN1C(=S)N(CCCN(C)C)c2c3ccccc3nc3c([N+](=O)[O-])ccc1c23	A498	inactive

Next:
Prompt: Name the outcome recorded for "CN(CCc1ccccn1)C(=S)N/N=C/c1ccccn1" in the assay.
Response: active

====

- System: UACC-62
- assay notes: NCI tumour cell line growth inhibition, 48 h
Calls of active or inactive are those of the source. Rule as the data show it: active = GI50 up to about 1.1 µM and inactive = higher.
quantity measured: GI50

Worked examples follow.
molecule	quantity measured	assay result
CCN(CCCl)c1cc(CN(C)C)cc(NC(=O)C23CCC(C(=O)Nc4cc(CN(C)C)cc(N(CC)CCCl)c4)(CC2)CC3)c1	GI50	1.14 µM (inactive)
Cc1cc2c(=O)cc(-c3ccc(Cl)cc3)oc2c(C(=O)O)c1C	GI50	> 100 µM (inactive)

Prompt: Look up GI50: COc1cccc(NC(=O)CC(=O)N2N=C(N3c4ccccc4Sc4ccccc43)CC2c2ccccc2)c1 (stereo not drawn)
Response: > 100 µM (inactive)

====

- Tested on: BT-549
- assay notes: NCI tumour cell line growth inhibition, 48 h
Activity calls are given as the source filed them. Rule as the data show it: active = GI50 up to about 1.1 µM and inactive = higher. *1 amine or outer side, *2 acyl side, *3 side chain or, on linkers, in order; H or OH if unused. Where a SMILES comes first, the peptide text is derived from it. [ ]: non-standard residue; d: D form. The star is where a group is joined. ξ: configuration not given here. NMeY = CN[C@@H](Cc1ccc(O)cc1)C(=O)O; Ethylenediamine = C(CN[*:2])N[*:1]; ξNMeL = CNC(CC(C)C)C(=O)O; Cbz = O=C(OCc1ccccc1)*; Lac = C[C@H](O)C(=O)O; ξA = CC(N)C(=O)O
Output constraint: value belongs to t (active), f (inactive)

Please review the entries below; each comes with its answer.
compound	label class
CCC(C)C1NC(=O)C2CCCN2C(=O)C(CC2CO2)OC(=O)CCNC(=O)C(C)N(C)C(=O)C(C(C)C)N(C)C1=O (stereo not given)	t
COc1ccc(C[C@@H](C(=O)NCCNC(=O)C(CC(C)C)N(C)C(=O)[C@@H]2CCCN2C(=O)[C@H](C)O)N(C)C(=O)[C@@H]2CCCN2C(=O)[C@H](CC(C)C)NC(=O)C(C)NC(=O)OCc2ccccc2)cc1 (stereo not given in full) (Cbz-[ξA]LP[NMeY](Me)-{Ethylenediamine-ξNMeL-Pro-Lac})	f
NCC1OC(n2cnc3c(=O)[nH]c(N)nc32)C(O)C1O (stereo not given)	f
C[n+]1c2ccccc2c(N=[N+]=[N-])c2ccccc21	f
O=C1C/C(=N/c2ccc(Cl)cc2)C(c2ccccc2)N1c1ccccc1 (stereo not given)	f

Prompt: Could you check what this test reported for "Cc1ccnc2sc3ccccc3c(=O)c12" ?
Response: f

Prompt: Tell me the assay call for "O=C1/C(=C/c2cccc([N+](=O)[O-])c2)Sc2scc(-c3ccc([N+](=O)[O-])cc3)[n+]21" please.
Response: f

Prompt: Which outcome was entered for the compound "CCCOc1ccc2sc(NC(=O)c3cc([N+](=O)[O-])cc([N+](=O)[O-])c3)nc2c1" in this test?
Response: f

Prompt: I'd appreciate the recorded outcome for C=C1C(=O)O[C@H]2C1C[C@@H](O)/C(C)=C/CC[C@@]1(C)O[C@H]21 (stereo not given in full) from this test.
Response: f

Prompt: Please share the test call associated with "O=C(O)Cc1ccc(Nc2nc3cc(C(F)(F)F)ccc3nc2C(=O)O)cc1" .
Response: f
